Assay: HCT-13 stock solution (solubilization)
Format: physicochemical
Details: aqueous with cosolvent or surfactant or cyclodextrin; aqueous 40% captisol with 1% DMSO, heating 50° C., sonication 15 minutes; read-out: concentration solubilized
MEASURED PROPERTY: solubility at 15 min

Challenge: Request the reported solubility at 15 min associated with CN(C)C(=S)N/N=C/c1nccc2cc(F)ccc12 (mixture of isomers) [HCT13]
Response given: ≤ 20 mg/mL

* * *

Provide the recorded IC90 for the entries that follow.
System: MIAPACA2 cells
Assay: Proliferation assay (CellTiter-Glo, 72 h) in MIAPACA2 cells
Assay type: cell-based, human
Conditions: MIAPACA2, 72 h, DMEM + 10% FBS + 20 μM CuCl2; read-out: +Cu(II) IC90
Give bare numbers, in nM.

In the examples that follow, each entry is paired with its recorded IC90.
> print(dat)
                                   compound  target.under.test  measured.property  experimental.value
1             NC(=S)N/N=C/c1ncc(F)c2ccccc12     MIAPACA2 cells               IC90                2060
2  CNc1cccc2c(/C=N/NC(N)=S)nccc12 [HCT4, reference compound]     MIAPACA2 cells               IC90                5330
3  CNc1cccc2c(/C=N/NC(=S)N(C)C)ncc(F)c12 (mixture of isomers)     MIAPACA2 cells               IC90                42.3
4             NC(=S)N/N=C/c1nccc2cc(F)ccc12     MIAPACA2 cells               IC90                2040
5  CN(C)C(=S)N/N=C/c1nccc2ccccc12 (mixture of isomers)     MIAPACA2 cells               IC90                73.7
6  NC(=S)N/N=C/c1nccc2c(N)cccc12 [HCT5, reference compound]     MIAPACA2 cells               IC90               71100
7  CNC(=S)N/N=C/c1nccc2c(N)cccc12 (mixture of isomers)     MIAPACA2 cells               IC90                7870
8  CNc1c(F)ccc2c(/C=N/NC(=S)N(C)C)nccc12 (mixture of isomers)     MIAPACA2 cells               IC90                38.4

Challenge: // returns reported IC90 for input CNC(=S)N/N=C/c1nccc2c(NC)cccc12
Response given: 607
